meta.source: patent US4117136A

Test system: Erwinia carotovora
protocolText: Plant systemic activity (root immersion, Chinese cabbage)
measurementSetup: roots immersed, 10 ppm, inoculated after 2 days
Where a name gives a salt, the structure may show the parent alone.
endpoint: Severity of Disease (%)

>>> reading("C=Cn1cc(C(=O)O)c(=O)c2cc3c(cc21)OCO3 [Compound (4)]")
0
>>> reading("COn1cc(C(=O)O)c(=O)c2c3sc(=O)n(C)c3ccc21")
25
>>> reading("CCOC(=O)c1cn(CCF)c2cc3c(cc2c1=O)OCO3")
0
>>> reading("[H]/N=C(/N)N[C@H]1[C@H](O)[C@@H](O)[C@H](O[C@@H]2O[C@@H](C)[C@](O)(C=O)[C@H]2O[C@@H]2O[C@@H](CO)[C@H](O)[C@@H](O)[C@@H]2NC)[C@@H](N/C(N)=N\\[H])[C@@H]1O [Streptomycin Sulfate, reference compound]")
31
